Target: GluN1/2B (Homo sapiens, UniProt Q05586+Q13224)
Sequence (Q13224 27-1484, other chains not shown): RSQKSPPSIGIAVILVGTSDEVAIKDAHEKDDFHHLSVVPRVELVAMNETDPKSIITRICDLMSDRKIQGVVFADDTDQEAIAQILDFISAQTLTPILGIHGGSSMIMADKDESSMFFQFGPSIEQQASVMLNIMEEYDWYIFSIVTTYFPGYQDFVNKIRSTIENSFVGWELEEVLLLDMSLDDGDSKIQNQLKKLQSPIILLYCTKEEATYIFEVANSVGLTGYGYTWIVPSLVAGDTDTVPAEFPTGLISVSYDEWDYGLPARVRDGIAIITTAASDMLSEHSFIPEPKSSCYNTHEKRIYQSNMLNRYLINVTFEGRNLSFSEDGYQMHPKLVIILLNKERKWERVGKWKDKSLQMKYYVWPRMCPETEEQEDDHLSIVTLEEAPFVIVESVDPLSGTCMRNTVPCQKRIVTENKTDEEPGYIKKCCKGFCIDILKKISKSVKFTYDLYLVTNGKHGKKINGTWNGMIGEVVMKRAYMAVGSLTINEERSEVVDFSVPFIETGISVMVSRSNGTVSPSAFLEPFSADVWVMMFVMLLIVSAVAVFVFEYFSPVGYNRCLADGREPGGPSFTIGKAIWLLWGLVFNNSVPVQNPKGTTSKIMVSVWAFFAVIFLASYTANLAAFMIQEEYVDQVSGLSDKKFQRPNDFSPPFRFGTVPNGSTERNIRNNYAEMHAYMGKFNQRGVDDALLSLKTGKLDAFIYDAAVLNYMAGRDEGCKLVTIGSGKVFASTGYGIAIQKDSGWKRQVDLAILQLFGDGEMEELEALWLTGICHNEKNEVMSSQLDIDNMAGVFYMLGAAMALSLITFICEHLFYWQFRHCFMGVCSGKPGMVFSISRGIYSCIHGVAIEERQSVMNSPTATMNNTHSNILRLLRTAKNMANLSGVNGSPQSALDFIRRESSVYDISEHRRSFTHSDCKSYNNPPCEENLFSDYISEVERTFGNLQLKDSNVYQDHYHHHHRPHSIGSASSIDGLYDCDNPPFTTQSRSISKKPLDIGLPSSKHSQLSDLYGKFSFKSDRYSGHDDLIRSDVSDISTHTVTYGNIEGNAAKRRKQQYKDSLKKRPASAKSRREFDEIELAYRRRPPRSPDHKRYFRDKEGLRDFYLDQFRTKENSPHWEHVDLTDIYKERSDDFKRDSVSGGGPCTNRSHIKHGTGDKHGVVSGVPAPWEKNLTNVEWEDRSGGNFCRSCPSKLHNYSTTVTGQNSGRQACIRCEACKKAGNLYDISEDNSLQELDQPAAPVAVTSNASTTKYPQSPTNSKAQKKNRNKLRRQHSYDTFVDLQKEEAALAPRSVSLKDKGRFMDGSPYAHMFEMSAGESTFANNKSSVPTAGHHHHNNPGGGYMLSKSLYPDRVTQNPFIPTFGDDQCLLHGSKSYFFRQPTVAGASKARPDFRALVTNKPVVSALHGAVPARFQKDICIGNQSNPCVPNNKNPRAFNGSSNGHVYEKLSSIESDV
Experiment: NMDA receptor subunit selectivity of CNS004 analogs, average response, 1/2B
Format: cell-based
Conditions: compound 100 μM
Below, each entry is listed with its recorded Average Response (% inhibition), 1/2B.

>  <COMPOUND>
O=C(NC(=S)N1CCCCC1c1cccnc1)c1cccc(F)n1 (stereo not shown) [Compound 40]

>  <Average Response (% inhibition), 1/2B>
−56.1908 % inhibition

$$$$
>  <COMPOUND>
O=C(NC(=O)N1CCCCC1c1cccnc1)c1ccc(F)cc1 (stereo not shown) [Compound 4]

>  <Average Response (% inhibition), 1/2B>
5.755 % inhibition

$$$$
>  <COMPOUND>
O=C(NC(=S)N1CCCCC1c1cccnc1)c1ccc(Cl)c(F)c1 (stereo not shown) [Compound 9]

>  <Average Response (% inhibition), 1/2B>
−19.0618 % inhibition

$$$$
>  <COMPOUND>
COCCCc1ccc(C(=O)NC(=S)N2CCCCC2c2cccnc2)cc1 (stereo not shown) [Compound 8]

>  <Average Response (% inhibition), 1/2B>
6.998 % inhibition

$$$$
>  <COMPOUND>
COc1cccc(C(=O)NC(=S)N2CCCCC2c2cccnc2)c1OC (stereo not shown) [Compound 41]

>  <Average Response (% inhibition), 1/2B>
0.6785 % inhibition

$$$$
>  <COMPOUND>
O=C(NC(=S)N1CCCCC1c1cccnc1)c1ccc(P(=O)(O)O)cc1 (stereo not shown) [Compound 7]

>  <Average Response (% inhibition), 1/2B>
3.872 % inhibition

$$$$
>  <COMPOUND>
O=C(NC(=S)N1CCCCC1c1cccnc1)c1ccc(C2CC2)cc1 (stereo not shown) [Compound 5]

>  <Average Response (% inhibition), 1/2B>
9.468 % inhibition

$$$$
>  <COMPOUND>
O=C(NC(=S)N1CCCCC1c1cccnc1)c1ccc(CCCF)cc1 (stereo not shown) [Compound 6]

>  <Average Response (% inhibition), 1/2B>
6.739 % inhibition

$$$$
>  <COMPOUND>
Fc1ccc(C(=S)NC(=S)N2CCCCC2c2cccnc2)cc1 (stereo not shown) [Compound 3]

>  <Average Response (% inhibition), 1/2B>
−45.1553 % inhibition

$$$$
>  <COMPOUND>
O=C(NC(=S)N1CCCCC1c1cccnc1)c1ccc(C(F)(F)F)cc1 (stereo not shown) [Compound 2]

>  <Average Response (% inhibition), 1/2B>
−14.5863 % inhibition

$$$$
